# targetEntity: UniProt P41145
# Sequence (P41145 whole entry): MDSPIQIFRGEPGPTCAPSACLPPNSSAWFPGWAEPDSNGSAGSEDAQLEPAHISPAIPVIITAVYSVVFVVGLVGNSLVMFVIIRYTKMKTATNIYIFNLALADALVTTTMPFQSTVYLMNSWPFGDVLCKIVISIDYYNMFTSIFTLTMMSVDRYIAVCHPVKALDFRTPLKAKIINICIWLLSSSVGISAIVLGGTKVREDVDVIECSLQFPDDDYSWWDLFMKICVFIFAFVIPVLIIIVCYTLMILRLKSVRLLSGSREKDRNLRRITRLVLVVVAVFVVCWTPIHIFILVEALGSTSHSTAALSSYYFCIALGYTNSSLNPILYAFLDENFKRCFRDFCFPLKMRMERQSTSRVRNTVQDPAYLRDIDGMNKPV
# method: KOR calcium mobilization agonist/antagonist screen (CHO-RD-HGA16 cells)
# Format: cell-based
# Design: host or cells: CHO-RD-HGA16
# runParameters: CHO-RD-HGA16; agonist screen, single concentration; control agonist U69,593
# Experimental: Compounds were evaluated for kappa (KOR), mu (MOR), and delta (DOR) opioid receptor agonist and antagonist activity in three individual cell lines overexpressing Gαq16 (CHO-RD-HGA16, Molecular Devices) and the human kappa, mu, and delta opioid receptors, respectively. […] After the dye-loading incubation period, pretreatment solution was added to each well (25 μL of 9% DMSO/assay buffer) and, after 15 min, the plate was read with a FlexStation II (Molecular Devices). […]
propertyName: Emax

INSERT INTO assay_data (samplesmiles, measuredvalue) VALUES
  ('C/C=C1/CNCC[C@H]1C(=O)c1cc2ccccc2[nH]1', '3%'),
  ('CCOC(=O)C1CCN(Cc2c[nH]c3ccccc23)CC1', '1%'),
  ('C/C=C1/CN2CC[C@H]1C(=O)c1[nH]c3ccc(F)cc3c1C2', '1%'),
  ('C/C=C1/CN(CCC)CC[C@H]1C(=O)c1cc2ccccc2[nH]1', '3%'),
  ('CCOC(=O)c1[nH]c2ccccc2c1CN1CCC(C(=O)OC)CC1', '0%');

* * *

# targetEntity: human CXCR4 (Homo sapiens, UniProt P61073)
# Construct: host or cells: C2C12
# Sequence (P61073 whole entry): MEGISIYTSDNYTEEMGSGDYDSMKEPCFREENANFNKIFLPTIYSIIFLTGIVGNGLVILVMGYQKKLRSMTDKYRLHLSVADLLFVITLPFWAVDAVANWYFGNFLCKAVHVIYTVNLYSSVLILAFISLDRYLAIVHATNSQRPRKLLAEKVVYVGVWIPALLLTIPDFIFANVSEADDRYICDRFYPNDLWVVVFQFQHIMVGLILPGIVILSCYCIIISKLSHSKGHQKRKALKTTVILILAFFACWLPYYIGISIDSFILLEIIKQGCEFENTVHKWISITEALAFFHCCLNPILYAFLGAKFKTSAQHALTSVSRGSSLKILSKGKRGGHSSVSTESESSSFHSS
# method: CXCR4 β-arrestin recruitment assay (PathHunter)
# Format: cell-based
# runParameters: human CXCR4-C2Cl2 cells, relative to CXCL-12
Label 1 for high-side CXCR4 β-arrestin % CXCL-12Emax (n = 2) (at or above 9%) and -1 for low-side CXCR4 β-arrestin % CXCL-12Emax (n = 2) (below it).

INSERT INTO assay_data (compound, answerlabel) VALUES
  ('C/C=C1/CN2CC[C@H]1C(=O)c1[nH]c3ccc(OC)cc3c1C2 [WW-5]', -1),
  ('CCOC(=O)C(c1[nH]c2ccccc2c1C=O)C1CCN(S(=O)(=O)c2ccc(C)cc2)C/C1=N\O (centres unmarked) [WW-65]', 1),
  ('CCCCCN1CCN(C(=O)c2cc3ccccc3[nH]2)C(CC)C1 (centres unmarked) [WW-25]', -1),
  ('NC1CN(C(=O)c2cc3ccccc3[nH]2)C1 [WW-31]', -1),
  ('CCCCCN1CCN(Cc2cc3ccccc3[nH]2)CC1 [WW-21]', 1),
  ('C/C=C1/CN(CCOCCN)CC[C@H]1C(=O)c1cc2ccccc2[nH]1 [WW-60]', 1),
  ('C/C=C1/CN(CC(C)C)CC[C@H]1C(=O)c1cc2ccccc2[nH]1 [WW-10]', -1),
  ('CCC1CN2CC[C@H]1C(=O)c1[nH]c3ccccc3c1C2 (some centres unmarked) [WW-15]', -1),
  ('CCCCCN1CCC(C(=O)c2cc3ccccc3n2CCCCC)CC1 [WW-20]', 1),
  ('CCCCCN1CC[C@H](NC(=O)c2cc3c(OC)c(OC)c(OC)cc3[nH]2)C1 [WW-47]', 1),
  ('C/C=C1/CN(Cc2ccc(OC)cc2)CC[C@H]1C(=O)c1cc2ccccc2[nH]1 [WW-7]', -1),
  ('C/C=C1/CN(CCc2ccc(F)cc2)CC[C@H]1C(=O)c1cc2ccccc2[nH]1 [WW-9]', 1),
  ('CCCCCN1CCN(C(=O)c2cc3ccccc3[nH]2)CC1 [WW-28]', 1),
  ('CCCCCN1CC[C@H](NC(=O)c2cc3cccc(-c4ccc(F)cc4)c3[nH]2)C1 [WW-46]', -1),
  ('C/C=C1/CN(CCCC(C)C)CC[C@H]1C(=O)c1cc2ccccc2[nH]1 [WW-63]', 1),
  ('O=C(N[C@H]1CCN(c2nccn3cccc23)C1)c1cc2ccccc2[nH]1 [WW-33]', -1),
  ('C/C=C1/CNCC[C@H]1C(=O)c1cc2ccccc2[nH]1 [WW-8]', -1);

* * *

# targetEntity: mouse ACKR3 (Mus musculus, UniProt P56485)
# Sequence (P56485 whole entry): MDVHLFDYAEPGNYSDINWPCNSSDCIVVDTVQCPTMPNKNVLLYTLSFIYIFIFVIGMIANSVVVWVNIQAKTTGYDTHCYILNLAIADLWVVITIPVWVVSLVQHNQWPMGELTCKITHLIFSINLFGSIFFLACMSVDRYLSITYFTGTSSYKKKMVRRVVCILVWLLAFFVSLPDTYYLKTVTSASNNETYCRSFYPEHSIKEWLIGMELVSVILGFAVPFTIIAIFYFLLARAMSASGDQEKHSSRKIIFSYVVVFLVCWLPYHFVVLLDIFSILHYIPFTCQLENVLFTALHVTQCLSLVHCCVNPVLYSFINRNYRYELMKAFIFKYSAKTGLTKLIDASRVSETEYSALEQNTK
# Sequence (P32121 whole entry partner): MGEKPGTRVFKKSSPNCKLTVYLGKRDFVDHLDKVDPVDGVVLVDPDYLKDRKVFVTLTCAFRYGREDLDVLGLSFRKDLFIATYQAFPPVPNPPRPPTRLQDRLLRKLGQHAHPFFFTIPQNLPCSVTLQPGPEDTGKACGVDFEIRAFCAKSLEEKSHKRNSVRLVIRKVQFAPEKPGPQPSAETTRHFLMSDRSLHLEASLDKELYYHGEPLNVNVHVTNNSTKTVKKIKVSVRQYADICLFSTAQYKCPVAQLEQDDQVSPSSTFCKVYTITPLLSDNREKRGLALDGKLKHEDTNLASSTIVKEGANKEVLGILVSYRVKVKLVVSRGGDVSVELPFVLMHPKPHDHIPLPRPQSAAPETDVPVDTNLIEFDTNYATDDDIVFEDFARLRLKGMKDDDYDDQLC
# method: NanoBiT-based β-arrestin-2 recruitment assay, mouse ACKR3 in U87 cells
# runParameters: NanoBiT, U87 cells, FIG. 1 section C; read-out: EC50, β-arrestin-2 recruitment to mouse receptor (mACKR3)
propertyName: EC50 (µM)

INSERT INTO results (samplesmiles, propertyname, measuredvalue) VALUES
  ('C/C=C1/CN(CCCCC)CC[C@H]1C(=O)c1cc2ccccc2[nH]1', 'EC50', 0.9),
  ('C/C=C1/CN2CC[C@H]1C(=O)c1[nH]c3ccccc3c1C2', 'EC50', 22);

* * *

Let's look at some compounds and their measured log10 EC50.
# targetEntity: ACKR3 (Homo sapiens)
# Sequence (P25106 whole entry): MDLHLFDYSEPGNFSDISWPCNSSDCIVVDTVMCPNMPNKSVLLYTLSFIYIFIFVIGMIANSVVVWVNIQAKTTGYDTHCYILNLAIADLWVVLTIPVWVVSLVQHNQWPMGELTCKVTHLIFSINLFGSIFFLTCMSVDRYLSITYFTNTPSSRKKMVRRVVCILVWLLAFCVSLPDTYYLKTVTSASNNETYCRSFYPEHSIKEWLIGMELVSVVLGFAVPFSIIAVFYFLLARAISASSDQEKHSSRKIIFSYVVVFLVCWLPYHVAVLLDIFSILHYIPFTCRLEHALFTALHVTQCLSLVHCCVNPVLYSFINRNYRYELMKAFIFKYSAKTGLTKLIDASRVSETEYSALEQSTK
# method: ACKR3 β-arrestin recruitment assay (PathHunter, β-galactosidase complementation)
# Format: cell-based
# runParameters: stable human ACKR3-β-arrestin-2-CHO cells; mean ± SEM, at least two independent experiments in duplicate
propertyName: log10 EC50 (log10 of the value in µM)

INSERT INTO measurements (compound, targetentity, propertyname, measuredvalue) VALUES
  ('C/C=C1/CN(CCCCCCC)CC[C@H]1C(=O)c1cc2ccccc2[nH]1', 'ACKR3 (Homo sapiens)', 'log10 EC50', 0.39),
  ('C/C=C1/CN(Cc2ccc(OC)cc2)CC[C@H]1C(O)c1cc2cc(-c3ccc(F)cc3)ccc2n1S(=O)(=O)c1ccccc1 (stereo partly shown)', 'ACKR3 (Homo sapiens)', 'log10 EC50', 0.23),
  ('C=C1c2[nH]c3ccccc3c2CN2CC[C@@H]1/C(=C\C)C2', 'ACKR3 (Homo sapiens)', 'log10 EC50', 0.66),
  ('C/C=C1/CN2CC[C@H]1C(=O)c1[nH]c3ccc(OC)cc3c1C2', 'ACKR3 (Homo sapiens)', 'log10 EC50', 0.91),
  ('C/C=C1/CN(CCCCC)CC[C@H]1C(=O)c1cc2cc(Cl)ccc2[nH]1', 'ACKR3 (Homo sapiens)', 'log10 EC50', 0.29),
  ('C/C=C1/CN(CCc2ccc(F)cc2)CC[C@H]1C(=O)c1cc2ccccc2[nH]1', 'ACKR3 (Homo sapiens)', 'log10 EC50', 0.32),
  ('C/C=C1/CN2CC[C@H]1C(=O)c1[nH]c3ccccc3c1C2', 'ACKR3 (Homo sapiens)', 'log10 EC50', 1.44),
  ('C/C=C1/CN(Cc2ccc(OC)cc2)CC[C@H]1C(=O)c1cc2ccccc2[nH]1', 'ACKR3 (Homo sapiens)', 'log10 EC50', 0.27),
  ('CCCCCN1CCC(C)(C(=O)c2cc3ccccc3[nH]2)CC1', 'ACKR3 (Homo sapiens)', 'log10 EC50', 0.81),
  ('C/C=C1/CN(CCC)CC[C@H]1C(=O)c1cc2ccccc2[nH]1', 'ACKR3 (Homo sapiens)', 'log10 EC50', 0.52),
  ('C/C=C1/CN(CCCCOc2ccccc2)CC[C@H]1C(=O)c1cc2ccccc2[nH]1', 'ACKR3 (Homo sapiens)', 'log10 EC50', 0.58),
  ('C/C=C1/CN(Cc2ccc(OC)cc2)CC[C@H]1C(O)c1cc2ccccc2n1S(=O)(=O)c1ccccc1 (stereo partly shown)', 'ACKR3 (Homo sapiens)', 'log10 EC50', -0.28),
  ('CCCCCN1CCN(C(=O)c2cc3ccccc3[nH]2)C2(CC2)C1', 'ACKR3 (Homo sapiens)', 'log10 EC50', 0.48),
  ('CCCCCN1CCN(C(=O)c2cc3ccccc3n2CCCCC)C2(CC2)C1', 'ACKR3 (Homo sapiens)', 'log10 EC50', 0.78),
  ('C/C=C1/CN(CCCCCC)CC[C@H]1C(=O)c1cc2ccccc2[nH]1', 'ACKR3 (Homo sapiens)', 'log10 EC50', 0.48),
  ('C/C=C1/CN(CCCC(C)C)CC[C@H]1C(=O)c1cc2ccccc2[nH]1', 'ACKR3 (Homo sapiens)', 'log10 EC50', 0.25),
  ('O=C(N[C@H]1CCN(c2nccn3cccc23)C1)c1cc2ccccc2[nH]1', 'ACKR3 (Homo sapiens)', 'log10 EC50', -0.42),
  ('CCCCCN1CCC(C(=O)c2cc3ccccc3n2CCCCC)CC1', 'ACKR3 (Homo sapiens)', 'log10 EC50', 0.25);

* * *

# targetEntity: MOR (Homo sapiens)
# Sequence (P35372 whole entry): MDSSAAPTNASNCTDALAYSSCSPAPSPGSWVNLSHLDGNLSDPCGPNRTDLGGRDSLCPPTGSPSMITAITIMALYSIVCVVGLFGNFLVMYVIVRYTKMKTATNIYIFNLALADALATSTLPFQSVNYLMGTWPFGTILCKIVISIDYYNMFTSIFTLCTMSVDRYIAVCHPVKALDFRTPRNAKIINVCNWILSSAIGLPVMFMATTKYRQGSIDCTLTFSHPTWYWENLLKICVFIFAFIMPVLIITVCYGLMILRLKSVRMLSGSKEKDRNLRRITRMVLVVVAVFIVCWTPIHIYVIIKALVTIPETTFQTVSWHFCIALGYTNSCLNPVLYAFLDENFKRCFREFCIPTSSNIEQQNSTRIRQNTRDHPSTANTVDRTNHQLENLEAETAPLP
# method: MOR calcium mobilization agonist/antagonist screen (CHO-RD-HGA16 cells)
# Format: cell-based
# Set-up: host or cells: CHO-RD-HGA16
# runParameters: CHO-RD-HGA16; agonist screen, single concentration; control agonist DAMGO
propertyName: Emax (%)

INSERT INTO assay_data (molecule, propertyname, measuredvalue) VALUES
  ('C/C=C1/CN2CC[C@H]1C(=O)c1[nH]c3ccccc3c1C2 [WW-1]', 'Emax', 0),
  ('C/C=C1/CN2CC[C@H]1C(=O)c1[nH]c3ccc(F)cc3c1C2 [WW-4]', 'Emax', 0),
  ('C/C=C1/CN2CC[C@H]1C(=O)c1[nH]c3cc(F)ccc3c1C2 [WW-3]', 'Emax', 1),
  ('C/C=C1/CN(CCC)CC[C@H]1C(=O)c1cc2ccccc2[nH]1 [WW-14]', 'Emax', 1),
  ('CCOC(=O)c1[nH]c2ccccc2c1CN1CCC(C(=O)OC)CC1 [WW-6]', 'Emax', 0);
